# experimental-target: T1, B-cat-Halo (UniProt P35222 1-781)
# T1 sequence (looked up): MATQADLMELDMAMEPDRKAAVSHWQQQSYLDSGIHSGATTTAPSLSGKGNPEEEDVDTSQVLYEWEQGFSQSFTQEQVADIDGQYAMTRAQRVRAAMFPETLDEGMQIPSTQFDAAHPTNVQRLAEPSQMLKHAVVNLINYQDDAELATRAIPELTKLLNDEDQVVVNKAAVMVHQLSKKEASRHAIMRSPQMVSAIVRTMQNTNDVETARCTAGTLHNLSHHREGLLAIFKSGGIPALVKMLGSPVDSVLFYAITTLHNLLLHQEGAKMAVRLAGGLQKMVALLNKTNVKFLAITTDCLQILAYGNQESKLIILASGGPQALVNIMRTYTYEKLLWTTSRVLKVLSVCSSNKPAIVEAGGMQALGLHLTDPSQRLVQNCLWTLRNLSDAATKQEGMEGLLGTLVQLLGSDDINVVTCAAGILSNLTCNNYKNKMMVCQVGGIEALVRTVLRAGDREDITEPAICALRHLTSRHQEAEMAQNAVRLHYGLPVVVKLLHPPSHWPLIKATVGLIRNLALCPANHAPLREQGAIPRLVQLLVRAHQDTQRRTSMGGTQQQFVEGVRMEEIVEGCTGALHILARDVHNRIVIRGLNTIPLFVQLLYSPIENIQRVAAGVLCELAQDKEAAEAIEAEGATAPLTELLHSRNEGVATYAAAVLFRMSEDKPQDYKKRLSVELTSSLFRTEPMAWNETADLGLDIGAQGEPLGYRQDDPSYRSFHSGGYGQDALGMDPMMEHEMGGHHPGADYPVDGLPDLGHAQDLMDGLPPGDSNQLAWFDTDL
# test-details: cell-based or functional assay
Starred links: 1 amine or outer side, 2 acyl side, 3 side chain; linkers in the order of their positions; H or OH if unused. Positions of bridges follow the written chain, without caps; N, C: chain ends. Non-standard residues stand in square brackets, D forms with d. Primed or numbered codes have the meaning given here. PyrS2″ = (S)-3-amino-1-((pent-4-en-1-yloxy)carbonyl)pyrrolidine-3-carboxylic acid (stapling residue), C=CCCCOC(=O)N1CC[C@@](N[*:1])(C(=O)[*:2])C1; B5(16) = 2-amino-2-(pent-4-en-1-yl)hept-6-enoic acid = 2,2-bis(4-pentenyl)glycine (stitching residue), C=CCCCC(CCCC=C)(N[*:1])C(=O)[*:2]; B5(4) = 2,2-bis(4-pentenyl)glycine = 2-amino-2-(pent-4-en-1-yl)hept-6-enoic acid (stitching residue), C=CCCCC(CCCC=C)(N[*:1])C(=O)[*:2]; TfeGA = (S)-2-amino-3-((carboxymethyl)(2,2,2-trifluoroethyl)amino)propanoic acid, O=C([C@H](CN(CC(=O)[*:3])CC(F)(F)F)N[*:1])[*:2]; PyrS2 = (S)-3-amino-1-((pent-4-en-1-yloxy)carbonyl)pyrrolidine-3-carboxylic acid, C=CCCCOC(=O)N1CC[C@@](N[*:1])(C(=O)[*:2])C1; B5 = 2-amino-2-(pent-4-en-1-yl)hept-6-enoic acid, C=CCCCC(CCCC=C)(N[*:1])C(=O)[*:2]; AcLys″ = N6-acetyl-lysine, CC(=O)NCCCC[C@H](N[*:1])C(=O)[*:2]; Phe(2-CF3) = N[C@@H](Cc1ccccc1C(F)(F)F)C(=O)O; Ala(cPent) = N[C@@H](CC1CCCC1)C(=O)O; Bta = N[C@@H](Cc1csc2ccccc12)C(=O)O; αAllylPro = C=CC[C@@]1(C(=O)O)CCCN1; tBuAla = CC(C)(C)C[C@H](N)C(=O)O; 3Thi = N[C@@H](Cc1ccsc1)C(=O)O; TfeGA″ = not defined here
Label false if NanoBRET Abs IC50 falls below 7 µM; label true in every other case.

>  <binder>
Ac-[αAllylPro]D[tBuAla][B5(16)]D[TfeGA]AAFL[PyrS2″][Phe(2-CF3)][Bta]Q-NH2 (staple 1-4, 4-11) [I-1704]

>  <classification>
false

$$$$
>  <binder>
Ac-[αAllylPro]D[tBuAla][B5(4)]D[TfeGA]AAFL[PyrS2″][3Thi][Bta][AcLys″]-NH2 (staple 1-4, 4-11) [I-1709]

>  <classification>
false

$$$$
>  <binder>
Ac-[αAllylPro]D[tBuAla][B5(4)]D[TfeGA]AAFL[PyrS2″][Ala(cPent)][Bta]Q-NH2 (staple 1-4, 4-11; also: -CH=CH- in each staple reduced to -CH2-CH2-) [I-1713]

>  <classification>
true

$$$$
>  <binder>
Ac-[αAllylPro]D[tBuAla][B5(4)]D[TfeGA]AAFL[PyrS2″][3Thi][Bta]T-NH2 (staple 1-4, 4-11; also: -CH=CH- in each staple reduced to -CH2-CH2-) [I-1716]

>  <classification>
true

$$$$
>  <binder>
Ac-[αAllylPro]D[tBuAla][B5(4)]D[TfeGA]AAFL[PyrS2″][3Thi][Bta][AcLys″]-NH2 (staple 1-4, 4-11; also: -CH=CH- in each staple reduced to -CH2-CH2-) [I-1719]

>  <classification>
true

$$$$
>  <binder>
Ac-[αAllylPro]D[tBuAla][B5]D[TfeGA]AAFL[PyrS2][Ala(cPent)][Bta]Q-NH2 (staple 1-4, 4-11) [I-1703]

>  <classification>
false

$$$$
>  <binder>
Ac-[αAllylPro]D[tBuAla][B5(16)]D[TfeGA]AAFL[PyrS2″][3Thi][Bta]N-NH2 (staple 1-4, 4-11) [I-1705]

>  <classification>
false

$$$$
>  <binder>
Ac-[αAllylPro]D[tBuAla][B5(4)]D[TfeGA″]AAFL[PyrS2″][3Thi][Bta]T-NH2 (staple 1-4, 4-11; reading uncertain) [I-1706]

>  <classification>
false

$$$$
